# system: MDM2 (res 2-125) (Homo sapiens, UniProt Q00987)
# Sequence (Q00987 2-125): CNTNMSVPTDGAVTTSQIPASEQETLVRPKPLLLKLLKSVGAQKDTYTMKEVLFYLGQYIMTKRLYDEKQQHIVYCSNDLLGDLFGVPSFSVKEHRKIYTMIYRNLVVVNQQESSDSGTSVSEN
# test-name: Fluorescence anisotropy titration, binding to MDM2
# measurement-parameters: measured λex=280 nm; read-out: Kd, peptide + MDM2
# Procedure: Titration experiments were run on a Horiba Jobin Yvon fluorimeter equipped with the Hamilton Microlab titrator controlled by laboratory software. […] The intrinsic fluorescence of tryptophan in peptides 10, 48 was used to measure their binding affinity for MDM2 (res 2-125). […] Titration data were analyzed with a standard 1:1 binding model by using the quadratic solution to the equilibrium Kd=[A][B]/[AB]. […]
recorded-endpoint: pKd
A value of pKd is the negative decimal logarithm of a concentration given in moles per litre.

The reported pKd of the substance H-SCVRFGWTCDNSWHGCKG-OH (cysteine pairing not given here) [PEP48, bicyclic peptide selected against MDM2] was 6.12
